Ref: patent US7547729B2

Biological target: PPARα (Homo sapiens, UniProt Q07869)
Construct: expressed in transfected cells; host or cells: COS-7 cells
Sequence (Q07869 239-466 limits assumed): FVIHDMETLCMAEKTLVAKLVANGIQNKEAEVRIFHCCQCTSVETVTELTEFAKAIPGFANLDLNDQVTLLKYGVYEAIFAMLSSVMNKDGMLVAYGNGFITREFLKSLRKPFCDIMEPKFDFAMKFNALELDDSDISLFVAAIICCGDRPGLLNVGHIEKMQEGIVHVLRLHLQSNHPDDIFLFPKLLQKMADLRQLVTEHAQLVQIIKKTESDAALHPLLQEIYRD
Experiment: PPARα/Gal4 transactivation system in COS-7 cells
Assay type: cell-based
Settings: 10 μM, 24 hours
observed property: Induction factor
Numbers only.

Example molecules with recorded Induction factor:
molecule	measurement target	observed
CSc1ccc(C(=O)/C=C/c2cc(Br)c(OC(C)(C)C(=O)O)c(Br)c2)cc1	PPARα (Homo sapiens, UniProt Q07869)	12.66
Cc1cc(/C=C/C(=O)c2c(C)c(C)c(C)c(C)c2C)cc(C)c1OC(C)(C)C(=O)O	PPARα (Homo sapiens, UniProt Q07869)	6.03
Cc1cc(C(=O)/C=C/c2cc(C)c(OC(C)(C)C(=O)O)c(C)c2)cc(C)c1O	PPARα (Homo sapiens, UniProt Q07869)	9.92
COc1ccc(C(=O)/C=C/c2cc(C)c(OC(C)(C)C(=O)O)c(C)c2)cc1F	PPARα (Homo sapiens, UniProt Q07869)	21.03

Field: next molecule
Query: Looking for the measured Induction factor of Cc1cc(/C=C/C(=O)c2ccc(OCCCCCC3CCSS3)cc2)cc(C)c1OC(C)(C)C(=O)O (racemic) , can you help?
Result: 7.01
